Listed below: growth values for each entry.
Test system: NCI-H23 lung
Assay: NCI-60 one-dose screen, 48 h (100 = growth as untreated, 0 = no growth, -100 = all killed)
Details: 10 µM unless noted
Protocol: Growth inhibition of the NCI-H23 human Non-Small Cell Lung tumor cell line is measured as a screen for anti-cancer activity. Cells are grown in 96 well plates and exposed to the test compound for 48 hours. Compounds are tested at a single concentration, which is 10^-5 M for most compounds. The reported endpoint is percent growth (GI% or GIPRCNT), where numbers from 0 - 100% represent growth inhibition, and numbers from -100% - 0 represent cell death. […]
The panel holds about 83,000 compounds, 20% with a hit somewhere; the sample as a whole holds those more often.
Answer in %, number only, no unit symbol.

Consider the following illustrative entries.
STRUCTURE STRING: CC(C)(C)n1cc(-c2ccnc(NCCNS(=O)(=O)c3cccc4ccccc34)c2)c(-c2cccc(F)c2)n1
growth (%): 0.565
--
STRUCTURE STRING: O=C(Nc1ccc(NC(=O)c2cc(=O)[nH]c3ccccc23)cc1)Nc1cccc(C(F)(F)F)c1
growth (%): 62.3

Okay, next one:
Input line: Report measured growth; entry is C=C(C)[C@@H]1CC[C@]2(C(=O)O)CC[C@]3(C)[C@H](CC[C@@H]4[C@@]5(C)C[C@@H](Cc6cn(CCO[C@@H]7O[C@H](COC(C)=O)[C@H](OC(C)=O)[C@H](OC(C)=O)[C@H]7OC(C)=O)nn6)[C@H](O)C(C)(C)[C@@H]5CC[C@]43C)[C@@H]12
Output line: 60.5

====

System: HOP-62 NSCLC
Test: NCI-60 one-dose screen, 48 h
Conditions: 10 µM unless noted
The panel holds about 83,000 compounds, 20% with a hit somewhere; the sample as a whole holds those more often. The source made the active and inactive calls. How the source made its calls: active means growth percent below 10; inactive means the rest.
Respond using exactly one of the listed classes: active, inactive

Record excerpt, results attached:
COMPOUND: CCCCOC(=O)OCc1cc(=O)c(O)co1
CATEGORY LABEL: inactive
//
COMPOUND: CN(C)c1ccc(Nc2cc(-c3cccc(OC(F)(F)F)c3)nc3ccc(N4CCCC4)cc23)cc1
CATEGORY LABEL: inactive
//
COMPOUND: COc1ccc(/C(C)=C(/c2ccc(OCCCN(C)C)cc2)c2ccc(OC(=O)Cc3ccccc3)cc2)cc1
CATEGORY LABEL: inactive
//
COMPOUND: O=C(Nn1c2c(sc1=NCc1ccccc1)C(=O)c1ccccc1C2=O)c1cc2ccc1CCc1ccc(cc1)CC2
CATEGORY LABEL: inactive
//
COMPOUND: CNC(=O)c1cc(Oc2ccc3c(c2)sc2nc(-c4cc(OC)c(OC)c(OC)c4)cn23)ccn1
CATEGORY LABEL: inactive

Input line: Fill in: this test's call for N#Cc1nc(-c2ccccc2)oc1S(=O)(=O)N1CCOCC1 is ___
Output line: inactive

Input line: Fill in: this test's call for O=C1Nc2ccccc2/C1=C\c1nc(-c2ccccc2F)n2ccccc12 is ___
Output line: active

====

Listed below: growth values for each entry.
System: SW-620 colon
Assay: NCI-60 one-dose screen, 48 h (100 = growth as untreated, 0 = no growth, -100 = all killed)
Conditions: 10 µM unless noted
The panel holds about 83,000 compounds, 20% with a hit somewhere; the sample as a whole holds those more often.
Answer in %, number only, no unit symbol.

Consider the following illustrative entries.
MOLECULE: O=S(=O)(Nc1cc(Br)c(O)c2ccccc12)c1ccc(F)cc1
TARGET ENTITY: SW-620 colon
UNIT TEXT: %
NUMERIC READOUT: 104
--
MOLECULE: Cc1cc(Cl)ccc1NC(=O)c1cc2ccccc2cc1O
TARGET ENTITY: SW-620 colon
UNIT TEXT: %
NUMERIC READOUT: 11.2
--
MOLECULE: CCCCCCCCCCCCCCCC(N)c1ccccc1 (stereo not drawn)
TARGET ENTITY: SW-620 colon
UNIT TEXT: %
NUMERIC READOUT: -49.3
--
MOLECULE: OCCNCCCOc1ccc2ncnc(Nc3ccc(Oc4cccc(C(F)(F)F)c4)c(Cl)c3)c2c1
TARGET ENTITY: SW-620 colon
UNIT TEXT: %
NUMERIC READOUT: -84.2
--
MOLECULE: COC1=CC(c2ccc[nH]2)=N/C1=C\c1[nH]c(C)c(C(=O)OCc2ccccc2)c1C
TARGET ENTITY: SW-620 colon
UNIT TEXT: %
NUMERIC READOUT: -25.5

Input line: Report measured growth; entry is O=c1oc2c(cnc3ccccc32)cc1-c1ccsc1
Output line: 96.8

Input line: Report measured growth; entry is C#Cc1ccc(NC(=O)c2ccc(/C=C/C(=O)c3nccn3C)cc2)cc1
Output line: -73.3

====

Tested on: SNB-75 CNS
Test: NCI-60 one-dose screen, 48 h (100 = growth as untreated, 0 = no growth, -100 = all killed)
Conditions: 10 µM unless noted
The panel holds about 83,000 compounds, 20% with a hit somewhere; the sample as a whole holds those more often.
MEASURED ENDPOINT: growth (%)
Answer in %, number only, no unit symbol.

Consider the following illustrative entries.
MOLECULE: OB(O)c1cccc(-c2nc3ccc4[nH]ncc4c3c3c2CCCC3)c1
TARGET ENTITY: SNB-75 CNS
UNIT TEXT: %
NUMERIC READOUT: -30.6
//
MOLECULE: Cn1cc(-c2nc(-c3c[nH]c4ccncc34)cs2)c2ccccc21
TARGET ENTITY: SNB-75 CNS
UNIT TEXT: %
NUMERIC READOUT: 91
//
MOLECULE: CN1CCN(C(=O)OCc2ccc3c(Cl)cc(Cl)c(O)c3n2)CC1
TARGET ENTITY: SNB-75 CNS
UNIT TEXT: %
NUMERIC READOUT: 70.7
//
MOLECULE: Cn1c(=O)c2[nH]c(N/N=C/c3ccccc3Br)nc2n(C)c1=O
TARGET ENTITY: SNB-75 CNS
UNIT TEXT: %
NUMERIC READOUT: 97.6

Input line: Report measured growth; entry is CC(C)CCC[C@@H](C)[C@H]1CC[C@H]2[C@@H]3CC=C4C[C@@H](C(C(=O)O)C(=O)O)CC[C@]4(C)[C@H]3CC[C@]12C
Output line: -61.1

Input line: Report measured growth; entry is COc1ccccc1NC(=O)Cn1cc(CN2CCN(c3ccnc4cc(Cl)ccc34)CC2)nn1
Output line: 75.2

Input line: Report measured growth; entry is Cc1ccc(-c2cc(-c3ccc(Cl)cc3)nc(NC(=O)c3cccnc3)n2)cc1
Output line: 99.8

Input line: Report measured growth; entry is O=C(c1ccc(-c2nc(CSc3nc4ccccc4s3)no2)cc1)N1CCSCC1
Output line: 91.9

Input line: Report measured growth; entry is CC(C)(C)n1cc(-c2ccnc(NCCNS(=O)(=O)c3cccc(F)c3)c2)c(-c2ccccc2)n1
Output line: 85.2

Input line: Report measured growth; entry is Cc1nc(-c2ccccc2)cc2c(O)c(C(=O)NN)[nH]c(=O)c12
Output line: 104

Input line: Report measured growth; entry is CN1CCN(Cc2ccc(NC(=O)c3cncc(C#Cc4cnc(N)c5ccccc45)c3)cc2C(F)(F)F)CC1
Output line: -73

Input line: Report measured growth; entry is CN1CCN(Cc2ccc3c(NNC(=O)c4ccccc4)nc4cc(F)ccc4n23)CC1
Output line: 48.8

Input line: Report measured growth; entry is N#C/C(=C/c1ccc([N+](=O)[O-])cc1)n1nnc2cc(F)c(F)cc21
Output line: 74.9

Input line: Report measured growth; entry is O=C1N[C@@H]2NC(=[N+]3CCOCC3)N[C@@H]2N1
Output line: 94.5

====

Test system: U251 CNS
Assay: NCI-60 one-dose screen, 48 h
Conditions: 10 µM unless noted
This is part of a sample that, as a whole, favours compounds with a hit. Of some 83,000 tested, about 20% had one in any assay. Calls of active or inactive are those of the source. The calls were made as follows: active = growth percent below 10; inactive = the rest.
Respond using exactly one of the listed classes: active, inactive

MOLECULE: CO[C@]12C=C/C(=C(/C(=O)OCc3cccnc3)C(=O)CCCCCCCC[C@@]3(OC)C=C/C(=C(/C(=O)OCc4cccnc4)C(=O)CCCCCCCC1)O3)O2
TARGET ENTITY: U251 CNS
CATEGORY LABEL: inactive

Input line: Fill in: this test's call for CC(C)NC1CCC(Nc2ccnc3cc(Cl)ccc23)CC1 (stereo unspecified) is ___
Output line: inactive

Input line: Fill in: this test's call for O=C1N(Cc2ccccc2Cl)c2ccccc2C12NN=C(c1cccc(Cl)c1)S2 (stereo unspecified) is ___
Output line: active

Input line: Fill in: this test's call for COC(=O)c1c2c(c(C)[n+]([O-])c1C)C(=O)C=C(NCc1ccc(OC)cc1)C2=O is ___
Output line: active

Input line: Fill in: this test's call for O=C1Nc2ccccc2[C@]12CC(c1ccccc1)=NN2 is ___
Output line: inactive

Input line: Fill in: this test's call for O=C(Nc1nc2ccc(F)cc2s1)c1cccnc1Nc1ccc(Cl)cc1 is ___
Output line: inactive

These entries and their values trace back to PubChem BioAssay (NCI).
